The reported measurements were obtained from patent US10604782B2.

system: FeEnt utilization by A. baumannii; experiment: FeEnt siderophore nutrition test in A. baumannii; assay type: cell-based, Acinetobacter baumannii; settings: A. baumannii, 50 μM FeEnt, 100 μM compound in DMSO; untreated 1.16 ± 0.065
PROPERTY_LABEL: FeEnt Halo

Use the examples below as a reference point.
molecule="Cc1cc(N)c2ccccc2[n+]1CCCCCCCCCC[n+]1c(C)cc(N)c2ccccc21 [Dequalinium Chloride]" subject_of_test="FeEnt utilization by A. baumannii" property_label="FeEnt Halo" result="1.14 ± 0.017 cm"
molecule=N.N.O=C([O-])C1(C(=O)[O-])CCC1.[Pt+2] subject_of_test="FeEnt utilization by A. baumannii" property_label="FeEnt Halo" result="1.10 ± 0.050 cm"
molecule=C[C@@](Cc1ccc(O)c(O)c1)(NN)C(=O)O subject_of_test="FeEnt utilization by A. baumannii" property_label="FeEnt Halo" result="1.10 ± 0.015 cm"
molecule=O=c1oc2c(O)c(O)cc3c(=O)oc4c(O)c(O)cc1c4c23 subject_of_test="FeEnt utilization by A. baumannii" property_label="FeEnt Halo" result="1.08 ± 0.041 cm"
molecule=COc1cccc(O)c1O subject_of_test="FeEnt utilization by A. baumannii" property_label="FeEnt Halo" result="1.12 ± 0.025 cm"

Please report the measured FeEnt Halo for O=c1cc(-c2ccccc2)oc2cc(O)c(O)c(O)c12 tested on FeEnt utilization by A. baumannii.
1.23 ± 0.098 cm

Please report the measured FeEnt Halo for O=c1c2ccccc2[se]n1-c1ccccc1 tested on FeEnt utilization by A. baumannii.
0 cm

Please report the measured FeEnt Halo for O=C1C(Cl)=C(Cl)C(=O)C(Cl)=C1Cl tested on FeEnt utilization by A. baumannii.
1.14 ± 0.015 cm
